- assay-name: chemical genetic growth profiling, strain panel (AID 1159580);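 further: tested at 20 µM; growth read once vehicle control cultures reached saturation at 30 °C; 1 = growth at the plate median or of vehicle wells; lower values mean less growth of the strain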
- experimental-context: S. cerevisiae deletion strains, growth OD, locus YPR025C, strain CCL1, active compounds read low
The campaign covered roughly 5,500 compounds. About 2,000 (36%) were called active. Another 18% or so got no clear call; they are omitted. This is one part of the list.
measure: normalized growth

Worked cases, normalized growth given:
## Input Which normalized growth value is on record for "O=C(Nc1cc(C(F)(F)F)cc(C(F)(F)F)c1)C(Cl)(Cl)Cl" ?
## Output 0.969 (inactive)

## Input Thanks! And CC(C)(C)C1=C(C#N)C(c2c(Cl)cccc2Cl)C(C#N)=C(N)O1 (configuration not stated) ?
## Output 0.992 (inactive)

## Input Thanks! And "Clc1ccc(CSc2nccn2-c2cc(Cl)ccc2Cl)cc1" ?
## Output 0.964 (inactive)

***
## Input Which normalized growth value is on record for "O=S(=O)(Nc1cc(Cl)c(Cl)cc1Cl)c1cc(C(F)(F)F)cc(C(F)(F)F)c1" ?
## Output 0.962 (inactive)

## Input Thanks! And "COc1ccc2c(c1)CCc1sc(NC(=O)c3ccco3)nc1-2" ?
## Output 0.953 (inactive)
